biological target: Cyclin-dependent kinase 5/CDK5 activator 1 (Homo sapiens) (UniProt Q00535+Q15078); experiment: Inhibition of recombinant human CDK5/p25 expressed in bacteria assessed as residual activity at 1 uM using histone H1 as substrate in presence of [gamma33P]ATP relative to control
Sequence (Q00535 whole entry): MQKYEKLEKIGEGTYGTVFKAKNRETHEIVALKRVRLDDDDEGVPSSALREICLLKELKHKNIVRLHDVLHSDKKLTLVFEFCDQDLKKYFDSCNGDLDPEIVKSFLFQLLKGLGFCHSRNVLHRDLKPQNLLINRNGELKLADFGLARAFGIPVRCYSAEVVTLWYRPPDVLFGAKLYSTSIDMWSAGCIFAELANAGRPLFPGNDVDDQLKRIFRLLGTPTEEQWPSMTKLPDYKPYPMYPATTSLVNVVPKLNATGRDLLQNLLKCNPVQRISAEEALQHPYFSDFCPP
Sequence (Q15078 99-307 partner limits assumed): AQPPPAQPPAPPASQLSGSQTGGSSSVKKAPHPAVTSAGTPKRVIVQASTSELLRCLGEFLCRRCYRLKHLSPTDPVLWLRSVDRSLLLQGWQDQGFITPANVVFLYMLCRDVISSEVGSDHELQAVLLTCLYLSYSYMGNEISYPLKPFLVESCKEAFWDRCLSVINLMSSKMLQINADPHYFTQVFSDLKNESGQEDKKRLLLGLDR
experimental.endpoint: Activity
Could you write the number and then its unit?

>  <structure.string>
CN(C)/C=N/c1ncc2cc3cnccc3c([N+](=O)[O-])c2n1

>  <Activity>
94%

$$$$
>  <structure.string>
CC(C)N(CNc1ncc2cc3cnccc3c([N+](=O)[O-])c2n1)C(C)C

>  <Activity>
99%

$$$$
>  <structure.string>
CN(C)CNc1ncc2cc3cnccc3c([N+](=O)[O-])c2n1

>  <Activity>
99%

$$$$

### Prompt API: value(readout=Activity, system=Cyclin-dependent kinase 5/CDK5 activator 1 (Homo sapiens) (UniProt Q00535+Q15078)) for record Nc1ncc2cc3cnccc3c([N+](=O)[O-])c2n1
### Response 88%

### Prompt Record: CC(C)N(/C=N/c1ncc2cc3cnccc3c([N+](=O)[O-])c2n1)C(C)C
### Response 100%
